Molecular target: ExsA (Pseudomonas aeruginosa, UniProt P26993)
Construct: made in house
Sequence (P26993 1-278): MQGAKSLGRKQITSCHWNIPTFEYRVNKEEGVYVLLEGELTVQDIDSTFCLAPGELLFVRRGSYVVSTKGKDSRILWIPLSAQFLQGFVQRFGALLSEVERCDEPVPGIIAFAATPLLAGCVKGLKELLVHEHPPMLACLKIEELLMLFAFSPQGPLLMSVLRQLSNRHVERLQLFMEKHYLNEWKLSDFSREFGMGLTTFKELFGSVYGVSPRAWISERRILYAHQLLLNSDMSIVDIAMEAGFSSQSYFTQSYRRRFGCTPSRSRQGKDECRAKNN
Experiment: Chemiluminescence-based ExsA-DNA binding assay
Set-up: species or system P. aeruginosa
Details: Table 7, cell-free system; read-out: ExsA EC50
pEC50: −log10 of the molar value.
Listed here are molecules together with their documented pEC50.
property: pEC50

smiles-str | measurement-target | property | result-value
NC(=NO)c1ccc2nc(-c3ccc(NC(=O)c4ccc(F)cc4)cc3)n(O)c2c1 | ExsA (Pseudomonas aeruginosa, UniProt P26993) | pEC50 | < 4.60
O=C(/C=C/c1ccc(F)cc1)Nc1ccc(-c2nc3ccc([N+](=O)[O-])cc3n2O)c(F)c1 | ExsA (Pseudomonas aeruginosa, UniProt P26993) | pEC50 | 4.60 to 5.00
CC(=O)c1ccc(/C=C/C(=O)Nc2ccc(-c3nc4ccc(C#N)cc4n3O)cc2)cc1 | ExsA (Pseudomonas aeruginosa, UniProt P26993) | pEC50 | 4.60 to 5.00
CN(C)CCOc1cc2nc(-c3ccc(NC(=O)/C=C/c4ccc(F)cc4)cc3)n(O)c2cc1[N+](=O)[O-] | ExsA (Pseudomonas aeruginosa, UniProt P26993) | pEC50 | < 4.60
O=C(Nc1ccc(-c2nc3ccc([N+](=O)[O-])cc3n2O)cc1)c1ccc(O)cc1 | ExsA (Pseudomonas aeruginosa, UniProt P26993) | pEC50 | 4.60 to 5.00
CC(=O)c1ccc(C(=O)Nc2ccc(-c3nc4ccc(-n5cccn5)cc4n3O)cc2)cc1 | ExsA (Pseudomonas aeruginosa, UniProt P26993) | pEC50 | < 4.60
Cc1ccc(C(=O)Nc2ccc(-c3nc4ccc([N+](=O)[O-])cc4n3O)cc2)cc1 | ExsA (Pseudomonas aeruginosa, UniProt P26993) | pEC50 | > 5.00
O=C(/C=C/c1ccc(F)c(CP(=O)(O)O)c1)Nc1ccc(-c2nc3ccc([N+](=O)[O-])cc3n2O)cc1 | ExsA (Pseudomonas aeruginosa, UniProt P26993) | pEC50 | 4.60 to 5.00
O=C(/C=C/c1ccc(C(F)(F)F)nc1)Nc1ccc(-c2nc3ccc([N+](=O)[O-])cc3n2O)cc1 | ExsA (Pseudomonas aeruginosa, UniProt P26993) | pEC50 | > 5.00
CC(=O)c1ccc(C(=O)Nc2ccc(-c3nc4ccc([N+](=O)[O-])cc4n3O)nc2)cc1 | ExsA (Pseudomonas aeruginosa, UniProt P26993) | pEC50 | 4.60 to 5.00
